# Tested on: LXRa:RXRa (NR concentration 270 nM, RXRa partner concentration 90 nM)
# assay-protocol: PBM binding z-score (relative to random genomic background probes); higher = stronger binding; sequences stand for … in GC…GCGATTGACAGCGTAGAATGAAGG
reported-property: PBM binding z-score
Numbers only.

For orientation, consider the following solved cases.
seq | PBM binding z-score
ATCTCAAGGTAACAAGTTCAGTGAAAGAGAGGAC | 1.29
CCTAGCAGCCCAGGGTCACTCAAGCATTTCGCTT | 1.93
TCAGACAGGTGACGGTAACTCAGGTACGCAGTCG | 0.58

For every item below, please supply its PBM binding z-score.
1. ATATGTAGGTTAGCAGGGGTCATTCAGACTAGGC
2. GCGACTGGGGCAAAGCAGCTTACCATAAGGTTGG
3. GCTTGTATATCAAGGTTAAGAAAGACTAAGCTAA

Result string:
[5.99, -0.965, 1.1]

Report PBM binding z-score for each item below.
1. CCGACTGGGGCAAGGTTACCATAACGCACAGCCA
2. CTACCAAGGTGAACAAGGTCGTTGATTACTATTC
3. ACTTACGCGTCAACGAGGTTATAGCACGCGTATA
4. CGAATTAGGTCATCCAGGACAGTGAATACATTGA
5. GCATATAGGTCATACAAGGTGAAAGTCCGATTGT
6. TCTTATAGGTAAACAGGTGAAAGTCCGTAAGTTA

Result string:
[0.668, 1.38, 0.589, 3.32, 5.8, 1.01]
